Please respond with reported pIC50 for every item in the list.
# testTarget: Human recombinant GST-PI3Kγ (Homo sapiens)
# Sequence (P48736 whole entry): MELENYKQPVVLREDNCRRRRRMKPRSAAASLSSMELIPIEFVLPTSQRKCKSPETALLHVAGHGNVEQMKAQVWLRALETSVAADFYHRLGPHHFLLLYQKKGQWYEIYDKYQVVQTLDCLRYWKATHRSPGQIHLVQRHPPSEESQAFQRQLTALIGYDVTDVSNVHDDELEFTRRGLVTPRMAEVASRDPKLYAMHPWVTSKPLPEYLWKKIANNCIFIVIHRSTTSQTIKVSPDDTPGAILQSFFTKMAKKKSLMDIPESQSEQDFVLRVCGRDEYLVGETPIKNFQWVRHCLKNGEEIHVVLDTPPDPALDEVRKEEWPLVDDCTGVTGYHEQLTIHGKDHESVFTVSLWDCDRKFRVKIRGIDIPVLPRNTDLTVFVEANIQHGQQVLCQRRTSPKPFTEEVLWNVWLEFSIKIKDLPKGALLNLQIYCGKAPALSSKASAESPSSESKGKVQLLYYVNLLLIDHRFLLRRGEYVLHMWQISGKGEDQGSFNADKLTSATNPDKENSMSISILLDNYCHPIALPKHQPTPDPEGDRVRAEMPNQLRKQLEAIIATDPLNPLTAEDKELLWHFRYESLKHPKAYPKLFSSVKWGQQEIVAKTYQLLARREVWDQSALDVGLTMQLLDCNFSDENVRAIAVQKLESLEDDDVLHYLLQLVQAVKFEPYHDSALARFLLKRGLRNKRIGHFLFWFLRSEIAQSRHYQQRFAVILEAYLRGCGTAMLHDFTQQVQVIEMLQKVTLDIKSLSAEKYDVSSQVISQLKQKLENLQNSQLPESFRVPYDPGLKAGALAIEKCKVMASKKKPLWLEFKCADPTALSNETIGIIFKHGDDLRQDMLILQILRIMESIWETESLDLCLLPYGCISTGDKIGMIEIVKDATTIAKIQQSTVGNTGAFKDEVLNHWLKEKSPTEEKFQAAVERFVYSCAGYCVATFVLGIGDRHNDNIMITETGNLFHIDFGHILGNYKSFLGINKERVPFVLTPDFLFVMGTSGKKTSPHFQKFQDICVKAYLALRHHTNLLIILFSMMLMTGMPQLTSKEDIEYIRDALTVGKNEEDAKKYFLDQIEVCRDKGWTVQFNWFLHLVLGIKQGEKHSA
# methodSummary: High Throughput PI3K Lipid Kinase Assay (scintillation proximity assay, neomycin-coated beads)
# Assay type: biochemical
pIC50: −log10 of the molar value.

* O=C1NC(=O)/C(=C/c2ccc3nsnc3c2)S1 [Example 107] | > 6.00

Now for another entry.
So what does the record say about pIC50 for N=C1NC(=O)/C(=C/c2ccc3ncnc(N4CCCCC4)c3c2)S1 [Example 41] ?
> 6.00
